Listing of recorded growth inhibition by entry.
Assay: NCI Yeast Anticancer Drug Screen. Data for the mlh1 rad18 strain (AID 175)
Settings: S. cerevisiae mlh1 rad18 strain growth inhibition; at 5.0 µM (retest, dose inferred, filed as 0.5); hits give high values
Compounds without any hit were thinned out: in the full panel of roughly 79,000, 15% have a hit.
Use % as the unit, but write only the number.

# example entries with known answers
COc1cccc(/C=C2\S/C(=N/Nc3nc(-c4ccc([N+](=O)[O-])cc4)cs3)NC2=O)c1O = 10
O=S(=O)(NC1CCCC(c2ccccc2)C1)c1ccccc1 (stereo not given) = -26
O=C(O)c1ccccc1C(=O)OC1CCc2ccccc2C1 (stereo not given) = -4
O=NC1c2cccc3cccc(c23)C1N=O (stereo not given) = 48

Need growth inhibition of NC(=S)N/N=C1\c2ccccc2CCC1CCC1(O)CCc2ccccc2C1=O (stereo not given) , thanks. 0

Need growth inhibition of CCCCCCC=C(C(=O)OCC)C(=O)OCC , thanks. -3

Need growth inhibition of O/N=c1/ccn(O)c2ccccc12 , thanks. 82

Need growth inhibition of CCCCCCCN(CCCCCCC)CC(=O)c1ccc2cc(Cl)c3ccccc3c2c1 , thanks. 25

Need growth inhibition of Cc1ccc(C)c(C(=N)c2ccccc2Cc2ccccc2)c1 , thanks. 45

Need growth inhibition of CC(C)C(=O)CC(Sc1ccc(N)cc1)c1ccccc1 (stereo not given) , thanks. -19

Need growth inhibition of COc1cc(C2C3=C(COC3=O)Oc3cc4c(cc32)OCO4)cc(OC)c1O (stereo not given) , thanks. -10

Need growth inhibition of COc1ccc(C(C)c2cc3c(cc2OCC(C)=O)OCO3)cc1 (stereo not given) , thanks. -5

Need growth inhibition of O=C1C(=C2CCCC2)CCC1CN1CCCCC1 (stereo not given) , thanks. -29

Need growth inhibition of CC(C)=CCC/C(C)=C/CN1C(=O)C=CC1=O , thanks. 69

Need growth inhibition of O=S(=O)(c1cccc(C(F)(F)F)c1)N1c2ccccc2-n2cccc2C1c1cccnc1 (stereo not given) , thanks. 34

Origin of the recorded values: PubChem BioAssay (NCI)
